# Test Target: TGFBR2 (Homo sapiens)
# Construct: endogenous in cells
# Protocol: Kinobeads full dose-response competition binding: TGFBR2
# Experimental Conditions: Gene Name TGFBR2; EC50 with Correction, doses in nM; read-out: apparent Kd
Endpoint Label: Kd

• NCc1ccc(-c2nc(-c3ccncc3)c(-c3ccc(Cl)c(O)c3)[nH]2)cc1 = 767 nM

---

# System: ERCC2
# Protocol: Kinobeads competition binding: ERCC2
# Parameters: species or system human
# Experimental Conditions: target ERCC2
Listing of recorded CATDS by entry.
Endpoint Label: CATDS

• CN(C)C/C=C/C(=O)Nc1cc2c(Nc3ccc(F)c(Cl)c3)ncnc2cc1O[C@H]1CCOC1 = 0
• N#CC1(c2ccc(NC(=O)c3cccnc3NCc3ccncc3)cc2)CCCC1 = 0
• CCN1CCN(Cc2ccc(Nc3ncc(F)c(-c4cc(F)c5nc(C)n(C(C)C)c5c4)n3)nc2)CC1 = 0
• Nc1ncnc2[nH]c(-c3ccccc3)nc12 = 0.1122
• CCc1cc2c(cc1N1CCC(N3CCOCC3)CC1)C(C)(C)c1[nH]c3cc(C#N)ccc3c1C2=O = 0

---

# Test Target: endogenous kinases and other proteins enriched by Kinobeads from mixed cancer cell lysates (Homo sapiens)
# Construct: endogenous in cells
# Protocol: Kinobeads pulldown, full dose-response (eight doses);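 also: competition with Kinobeads ε after inhibitor preincubation in lysate (5 mg/ml protein) for 45 min at 4 °C, DMSO control, doses 0.3–1,000 nM, label-free LC–MS/MS quantification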
# Experimental Conditions: target IRAK4; read-out: apparent Kd
pKd: −log10 of the molar value.
Endpoint Label: pKd

• Cn1cc(-c2nc(N[C@@H]3CCCC[C@@H]3N)c(F)c3c2C(=O)NC3)cn1 [TAK659] = 6.17

---

# System: LIMK1
# Protocol: Kinobeads competition binding: LIMK1
# Design: species or system human
# Experimental Conditions: target LIMK1
Endpoint Label: CATDS

- CCN1CCN(Cc2ccc(Nc3ncc(F)c(-c4cc(F)c5nc(C)n(C(C)C)c5c4)n3)nc2)CC1: 0
- CCc1cc2c(cc1N1CCC(N3CCOCC3)CC1)C(C)(C)c1[nH]c3cc(C#N)ccc3c1C2=O: 0
- N#CC1(c2ccc(NC(=O)c3cccnc3NCc3ccncc3)cc2)CCCC1: 0
- Nc1ncnc2[nH]c(-c3ccccc3)nc12: 0

---

Listing of recorded CATDS by entry.
# Test Target: ACAD11 (Homo sapiens, UniProt Q709F0)
# Construct: endogenous in cells
# Protocol: Kinobeads two-dose competition binding: ACAD11
# Experimental Conditions: sheet CATDS matrix 2; Gene Name ACAD11
Endpoint Label: CATDS

* C#Cc1cccc(Nc2ncnc3cc(OC)c(OC4CCN(C)CC4)cc23)c1 | 0
* COc1cc(Nc2ncc(F)c(Nc3ccc4c(n3)N(COP(=O)(O)O)C(=O)C(C)(C)O4)n2)cc(OC)c1OC [Fostamatinib, reference compound] | 0
* COc1cc(N2CCN(C(C)C)CC2)ccc1Nc1nc(Nc2cccc(F)c2C(=O)O)c2cc[nH]c2n1 [GSK1819799A] | 0
* COc1cc2ncn(-c3cc(OCc4ccccc4C(F)(F)F)c(C(C)=O)s3)c2cc1OC [GSK1030059A] | 0

---

Listing of recorded CATDS by entry.
# Test Target: PIM1 (Homo sapiens)
# Construct: a mixture of lysates from five cancer cell lines; endogenous in cells
# Protocol: Kinobeads competition binding: PIM1
# Experimental Conditions: target PIM1
Endpoint Label: CATDS

• CCN1CCN(Cc2ccc(Nc3ncc(F)c(-c4cc(F)c5nc(C)n(C(C)C)c5c4)n3)nc2)CC1 = 0.03255
• N#CC1(c2ccc(NC(=O)c3cccnc3NCc3ccncc3)cc2)CCCC1 = 0
• Nc1ncnc2[nH]c(-c3ccccc3)nc12 = 0
• CCc1cc2c(cc1N1CCC(N3CCOCC3)CC1)C(C)(C)c1[nH]c3cc(C#N)ccc3c1C2=O = 0
